B1: Azoarcus group I ribozyme (parent)
chain: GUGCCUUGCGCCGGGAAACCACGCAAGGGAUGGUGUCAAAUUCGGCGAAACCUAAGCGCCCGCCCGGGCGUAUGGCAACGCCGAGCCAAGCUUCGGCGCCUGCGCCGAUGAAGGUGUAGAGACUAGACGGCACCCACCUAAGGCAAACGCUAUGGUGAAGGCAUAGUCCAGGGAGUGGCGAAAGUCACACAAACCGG

# Variants of: B1
# Test Protocol: reverse-splicing fitness (ratio to wild type); higher = more active; in vitro selection; Mg2+ level not given
In this section we review reported reverse-splicing fitness values for a set of variants.
Measured Endpoint: reverse-splicing fitness

C82U A111G A120G A145C C150G C169U U176A ... 0.0136
A111G A120U A145G C169U U176C ... 0.0414
C82A A111U A120C A145U C169A U176A ... 0.0227
C82U A111U A120U C169A ... 0.00267
C82A A145U C150A C169U U176G ... 0.00584
A120G A145U C169G U176A ... 0.206
C82G A111C A120U A145U C150A C169G U176C ... 0.00248
C82G A111C A120C A145C C150A C169G U176G ... 0.00758
C82G A111G A120G A145G C150U C169U ... 0.0141
A111U A120U A145U C150G C169A U176C ... 0.00274
C82U A111C C169U U176G ... 0.00681
A120C A145C C169A U176C ... 0.00838
C82A A120C A145U C150U C169G U176C ... 0.0198
C82U A111U A145G C150U C169G U176C ... 0.0174
A120U C150G C169G U176G ... 0.00248
C82U A145C C150A C169G ... 0.00677
C82U A145C C169A U176A ... 0.00806
C82A A111G A120U A145G C150A C169G U176C ... 0.00705
C82A A111G A120U C150G C169U U176G ... 0.00249
C82G A111U A120C A145U C150G C169U U176A ... 0.0083
A111C A120U A145C C150A ... 0.0314
C82A A120G A145U C169A U176A ... 0.0104

Provenance of the data: the RNAGym collection of RNA variant scans (doi:10.1093/molbev/msab373)
